Target: KRas G12D/Q61H double mutant (Homo sapiens (Human), UniProt P01116, G12D/Q61H)
Sequence (P01116-2 other isoform, or with tags, fused parts or gaps G12D/Q61H): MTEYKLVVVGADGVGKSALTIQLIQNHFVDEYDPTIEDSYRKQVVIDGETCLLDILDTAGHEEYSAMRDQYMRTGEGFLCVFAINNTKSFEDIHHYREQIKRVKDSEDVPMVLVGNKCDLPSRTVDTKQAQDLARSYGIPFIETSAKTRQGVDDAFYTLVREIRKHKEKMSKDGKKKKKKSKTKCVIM
Experiment: Ras GTP binding domain inhibition assay (labeled GTP)
Conditions: 20 μM; read-out: KRas G12D Q61H % Inh.
Below, each entry is listed with its recorded inhibition at 20 µM.

Example cases with answers are listed next.
# molecule, inhibition at 20 µM
data = [
    ("Cc1oc(-c2ccccc2)nc1C(=O)Nc1nnc(-c2ccccn2)[nH]1 [drawing 2463]", "51 to 75%"),
    ("CC(C)NC(=O)Nc1cccc(C(=O)Nc2nnc(-c3ccccn3)[nH]2)c1 [drawing 2451]", "51 to 75%"),
    ("O=C(Cn1c(=O)oc2ccccc21)Nc1nnc(-c2ccccn2)[nH]1 [drawing 2502]", "51 to 75%"),
    ("O=C(Cc1cccc(F)c1)Nc1nnc(-c2ccccn2)[nH]1 [drawing 2497]", "51 to 75%"),
    ("COc1ccccc1-c1cc(C(=O)Nc2nnc(-c3ccccn3)[nH]2)no1 [drawing 2539]", "51 to 75%"),
]

Moving on to another molecule below.
Fill blank: measured inhibition at 20 µM of the molecule N#CC1(c2ccc(C(=O)N3CCCC3CO)cc2)CC1 (stereo not drawn) [drawing 2632] is ____.
76 to 100%

###

Biological target: Rho-A (Homo sapiens (Human), UniProt P61586)
Sequence (P61586 whole entry): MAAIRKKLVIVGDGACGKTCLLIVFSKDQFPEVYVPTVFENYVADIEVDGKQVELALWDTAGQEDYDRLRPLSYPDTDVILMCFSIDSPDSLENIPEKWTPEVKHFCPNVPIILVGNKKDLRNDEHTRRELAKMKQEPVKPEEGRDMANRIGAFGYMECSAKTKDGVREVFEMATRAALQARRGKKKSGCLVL
Test: Rho inhibition assay (labeled GTP)
Format: binding
Conditions: read-out: Rho-A % Inh.
observedProperty: inhibition at 20 µM

Example cases with answers are listed next.
# compound, result
data = [
    ("O=C(NCCc1cccnc1)c1cc2nc(-c3ccccn3)nc(O)c2s1 [drawing 3715]", "76 to 100%"),
    ("O=C(c1csc2c(O)nc(-c3ccccn3)nc12)N1CCN(Cc2ccc(O)c(Cl)c2)CC1 [drawing 3654]", "76 to 100%"),
    ("Cc1sc2c(O)nc(-c3ccccn3)nc2c1C(=O)N1CCN(c2ccccc2)CC1C (stereo not drawn) [drawing 3828]", "51 to 75%"),
    ("O=C(CCc1nn[nH]n1)Nc1nc(-c2ccccn2)nc2sccc12 [drawing 3762]", "76 to 100%"),
    ("CCOCCOc1nc(-c2nccn2C)nc2sc(-c3ccccc3)c(-c3ccccc3)c12 [drawing 3890]", "25 to 50%"),
    ("COc1ccc2c(c1)CCC2C(=O)Nc1ccnc(-c2ccccn2)n1 (stereo not drawn) [drawing 3684]", "51 to 75%"),
    ("Oc1nc(-c2ccccn2)nc2c(-c3cc(F)cc(F)c3)csc12 [drawing 3772]", "51 to 75%"),
    ("COCC(C)Nc1nc(-c2ccccn2)nc(C(=O)NCCCc2c[nH]cn2)c1Oc1ccccc1 (stereo not drawn) [drawing 3868]", "25 to 50%"),
    ("CN(C)Cc1ccc(F)c(-c2csc3c(O)nc(-c4ccccn4)nc23)c1 [drawing 3773]", "76 to 100%"),
    ("Oc1nc(-c2ccccn2)nc2scc(Br)c12 [drawing 3623]", "76 to 100%"),
]

Fill blank: measured inhibition at 20 µM of the compound Cn1cnc(-c2nc(O)c3scc(-c4cccc(C(F)(F)F)c4)c3n2)c1 [drawing 3922] is ____.
25 to 50%

Same read-out for COC(=O)c1sc2c(O)nc(-c3ccccn3)nc2c1C [drawing 3795] ?
51 to 75%

Same read-out for Oc1nc(-c2ccccn2)nc2c(C3CCCC3)csc12 [drawing 3814] ?
76 to 100%

Same read-out for COc1ccc(-c2c(-c3ccccc3)sc3c(O)nc(-c4nccn4C)nc23)cn1 [drawing 3911] ?
1 to 25%

Same read-out for Oc1nc(-c2ccccn2)nc2c(-c3ccc(Cl)c(Cl)c3)csc12 [drawing 3781] ?
51 to 75%

Same read-out for Oc1nc(-c2ccccn2)nc2cc(-c3ccncc3)sc12 [drawing 3879] ?
51 to 75%

Same read-out for Cn1nnc2ccc(-c3csc4c(O)nc(-c5ccccn5)nc34)cc21 [drawing 3733] ?
51 to 75%

Same read-out for Cc1sc2c(O)nc(-c3ccccn3)nc2c1-c1cccnc1 [drawing 3786] ?
25 to 50%

Same read-out for Nc1nc(O)c2sc(-c3cccc(C(=O)NCc4cccc(O)n4)c3)cc2n1 [drawing 3864] ?
0%

Same read-out for Oc1nc(-c2ccccn2)nc2cc(-c3cccc(Br)c3)sc12 [drawing 3882] ?
25 to 50%

Source of measurements: patent US10940139B2
